Tested on: Enterococcus sp.
Assay: in vitro antibacterial evaluation, MIC by broth dilution
Assay type: cell-based
Settings: strain GC 2691; broth dilution, 18 hours at 35° C.
Description: Methods for in vitro Antibacterial Evaluation (Table 1) […]
Measure Name: MIC Enterococcus faecalis (GC 2691) (µg/mL)
Just the number please, in µg/mL, no unit attached.

Below, 4 compounds whose answers are already recorded.
Compound	Target	Measured Result
CC(C)=CCCC(C)=CCOc1ccc(C2OCC3OC(OC4C(CO)OC(Oc5ccc(CC6NC(=O)C(C(C)c7ccccc7)NC(=O)CNC(=O)C(CO)NC(=O)C(C(O)C7CNC(=N)N7C7OC(CO)C(O)C(O)C7O)NC(=O)C(C(O)C7CNC(=N)N7)NC6=O)cc5)C(O)C4O)C(O)C(O)C3O2)cc1 (centres unmarked) [Example 183]	Enterococcus sp.	2
Cc1ccc(Oc2cccc(-c3nc4cc(CC5NC(=O)C(C(C)c6ccccc6)NC(=O)CNC(=O)C(CO)NC(=O)C(C(O)C6CNC(=N)N6C6OC(CO)C(O)C(O)C6O)NC(=O)C(C(O)C6CNC(=N)N6)NC5=O)ccc4o3)c2)cc1 (centres unmarked) [Example 28]	Enterococcus sp.	8
COc1cc(OC)cc(C2OCC3OC(OC4C(CO)OC(Oc5ccc(CC6NC(=O)C(C(C)c7ccccc7)NC(=O)CNC(=O)C(CO)NC(=O)C(C(O)C7CNC(=N)N7C7OC(CO)C(O)C(O)C7O)NC(=O)C(C(O)C7CNC(=N)N7)NC6=O)cc5)C(O)C4O)C(O)C(O)C3O2)c1 (centres unmarked) [Example 150]	Enterococcus sp.	4
CC(c1ccccc1)C1NC(=O)CNC(=O)C(CO)NC(=O)C(C(O)C2CNC(=N)N2C2OC(CO)C(O)C(O)C2O)NC(=O)C(C(O)C2CNC(=N)N2)NC(=O)C(Cc2ccc3oc(SCc4ccccc4)nc3c2)NC1=O (centres unmarked) [Example 45]	Enterococcus sp.	32

Now turn to the next compound.
Consider CCCc1ccc(C2OCC3OC(OC4C(CO)OC(Oc5ccc(CC6NC(=O)C(C(C)c7ccccc7)NC(=O)CNC(=O)C(CO)NC(=O)C(C(O)C7CNC(=N)N7C7OC(CO)C(O)C(O)C7O)NC(=O)C(C(O)C7CNC(=N)N7)NC6=O)cc5)C(O)C4O)C(O)C(O)C3O2)cc1 (centres unmarked) [Example 140] . Its measured MIC Enterococcus faecalis (GC 2691) is 1

----------
Test system: Staphylococcus sp.
Assay: in vitro antibacterial evaluation, MIC by broth dilution
Type: cell-based
Settings: broth dilution, 18 hours at 35° C.; strain GC 1131
Measure Name: MIC Staphylococcus aureus (GC 1131) (µg/mL)
Write the number in µg/mL without appending the unit.

Some entries whose results are on file:
Compound	Unit String	Measured Result
CC(c1ccccc1)C1NC(=O)CNC(=O)C(CO)NC(=O)C(C(O)C2CNC(=N)N2C2OC(CO)C(O)C(O)C2O)NC(=O)C(C(O)C2CNC(=N)N2)NC(=O)C(Cc2ccc(OC3OC(CO)C(OC4OC5COC(c6ccc(-c7ccsc7)cc6)OC5C(O)C4O)C(O)C3O)cc2)NC1=O (stereo not shown)	µg/mL	4
Cc1cc(C2OCC3OC(OC4C(CO)OC(Oc5ccc(CC6NC(=O)C(C(C)c7ccccc7)NC(=O)CNC(=O)C(CO)NC(=O)C(C(O)C7CNC(=N)N7C7OC(CO)C(O)C(O)C7O)NC(=O)C(C(O)C7CNC(=N)N7)NC6=O)cc5)C(O)C4O)C(O)C(O)C3O2)ccc1[N+](=O)[O-] (stereo not shown)	µg/mL	8
CC(c1ccccc1)C1NC(=O)CNC(=O)C(CO)NC(=O)C(C(O)C2CNC(=N)N2C2OC(CO)C(O)C(O)C2O)NC(=O)C(C(O)C2CNC(=N)N2)NC(=O)C(Cc2ccc(OC3OC(CO)C(OC4OC5COC(c6ccc(S(C)(=O)=O)cc6)OC5C(O)C4O)C(O)C3O)cc2)NC1=O (stereo not shown)	µg/mL	32
CC(c1ccccc1)C1NC(=O)CNC(=O)C(CO)NC(=O)C(C(O)C2CNC(=N)N2C2OC(CO)C(O)C(O)C2O)NC(=O)C(C(O)C2CNC(=N)N2)NC(=O)C(Cc2ccc(OC3OC(CO)C(OC4OC5COC(c6cccc(Cl)c6)OC5C(O)C4O)C(O)C3O)cc2)NC1=O (stereo not shown)	µg/mL	2
CC(c1ccccc1)C1NC(=O)CNC(=O)C(CO)NC(=O)C(C(O)C2CNC(=N)N2C2OC(CO)C(O)C(O)C2O)NC(=O)C(C(O)C2CNC(=N)N2)NC(=O)C(Cc2ccc(OC3OC(CO)C(OC4OC(COCc5cccs5)C(O)C(O)C4O)C(O)C3O)cc2)NC1=O (stereo not shown)	µg/mL	8

The compound identified as COc1ccc2cc(COCC3OC(OC4C(CO)OC(Oc5ccc(CC6NC(=O)C(C(C)c7ccccc7)NC(=O)CNC(=O)C(CO)NC(=O)C(C(O)C7CNC(=N)N7C7OC(CO)C(O)C(O)C7O)NC(=O)C(C(O)C7CNC(=N)N7)NC6=O)cc5)C(O)C4O)C(O)C(O)C3O)ccc2c1 (stereo not shown) registered its MIC Staphylococcus aureus (GC 1131) at 2

----------
Test system: Enterococcus sp.
Experiment: in vitro antibacterial evaluation, MIC by broth dilution
Format: cell-based
Conditions: broth dilution, 18 hours at 35° C.; strain GC 2242
Measure Name: MIC Enterococcus faecalis (GC 2242) (µg/mL)
Numbers only here, please. The scale is µg/mL.

Previously resolved entries follow.
Compound	MIC Enterococcus faecalis (GC 2242) (µg/mL)
CC(c1ccccc1)C1NC(=O)CNC(=O)C(CO)NC(=O)C(C(O)C2CNC(=N)N2C2OC(CO)C(O)C(O)C2O)NC(=O)C(C(O)C2CNC(=N)N2)NC(=O)C(Cc2ccc(OC3OC(CO)C(OC4OC5COC(CC6CCCCC6)OC5C(O)C4O)C(O)C3O)cc2)NC1=O (centres unmarked) [Example 122]	2
Cc1ccc(CC2OCC3OC(OC4C(CO)OC(Oc5ccc(CC6NC(=O)C(C(C)c7ccccc7)NC(=O)CNC(=O)C(CO)NC(=O)C(C(O)C7CNC(=N)N7C7OC(CO)C(O)C(O)C7O)NC(=O)C(C(O)C7CNC(=N)N7)NC6=O)cc5)C(O)C4O)C(O)C(O)C3O2)cc1 (centres unmarked) [Example 119]	2
CC(c1ccccc1)C1NC(=O)CNC(=O)C(CO)NC(=O)C(C(O)C2CNC(=N)N2C2OC(CO)C(O)C(O)C2O)NC(=O)C(C(O)C2CNC(=N)N2)NC(=O)C(Cc2ccc(OC3OC(COC(=O)OCc4ccccc4)C(OC4OC(CO)C(O)C(O)C4O)C(O)C3O)cc2)NC1=O (centres unmarked) [Example 101]	16
COc1ccc(CC2OCC3OC(OC4C(CO)OC(Oc5ccc(CC6NC(=O)C(C(C)c7ccccc7)NC(=O)CNC(=O)C(CO)NC(=O)C(C(O)C7CNC(=N)N7C7OC(CO)C(O)C(O)C7O)NC(=O)C(C(O)C7CNC(=N)N7)NC6=O)cc5)C(O)C4O)C(O)C(O)C3O2)cc1 (centres unmarked) [Example 103]	4

// below: MIC Enterococcus faecalis (GC 2242) requested for another compound
Bench note, Enterococcus sp.: entry N=C1NCC(C(O)C2NC(=O)C(Cc3ccc(OC4OC(CO)C(OC5OC(CO)C(O)C6OC7(OC56)C5CC6CC(C5)CC7C6)C(O)C4O)cc3)NC(=O)C(CC3CCCCC3)NC(=O)CNC(=O)C(CO)NC(=O)C(C(O)C3CNC(=N)N3C3OC(CO)C(O)C(O)C3O)NC2=O)N1 (centres unmarked) [Example 106a] , its MIC Enterococcus faecalis (GC 2242) = 4

----------
System: Enterococcus sp.
Experiment: in vitro antibacterial evaluation, MIC by broth dilution
Format: cell-based
Settings: broth dilution, 18 hours at 35° C.; strain GC 4557
Numbered stars: 1 amine (or outer) side, 2 acyl side, 3 side chain; on linkers, the order of the positions; unused ones are H or OH. Square brackets hold non-standard residues; d marks the D form. Peptide text beside a SMILES is read from it. * marks the point of attachment. ξ: configuration not given here. X1 = N=C1NCC(C(O)C(N[*:1])C(=O)[*:2])N1C1OC(CO)C(O)C(O)C1O; ξEnduracididine(βξ-OH,4'ξ) = N=C1NCC(C(O)C(N)C(=O)O)N1; X2 = OCC1OC(OC2C(CO)OC(*)C(O)C2O)C(O)C(O)C1O; Cha = N[CH](CC1CCCCC1)C(=O)O
Quick reference for MIC Enterococcus faecium (GC 4557) among some molecules
Give just the numeric value; µg/mL need not be written.

Illustrative cases are given below, each with its answer.
Molecule	MIC Enterococcus faecium (GC 4557) / µg/mL
N=C1NCC(C(O)C2NC(=O)C(Cc3ccc(O)cc3)NC(=O)C(Cc3ccccc3)NC(=O)CNC(=O)C(CO)NC(=O)C(C(O)C3CNC(=N)N3C3OC(CO)C(O)C(O)C3O)NC2=O)N1 (stereo not drawn) [Example 279a] (cyclo(GFY[ξEnduracididine(βξ-OH,4'ξ)][X1]S); configuration not given here)	64
N=C1NCC(C(O)C2NC(=O)C(Cc3ccc(OC4OC(CO)C(OC5OC(CO)C(O)C(O)C5O)C(O)C4O)cc3)NC(=O)C(CC3CCCCC3)NC(=O)CNC(=O)C(CO)NC(=O)C(C(O)C3CNC(=N)N3C3OC(CO)C(O)C(O)C3O)NC2=O)N1 (stereo not drawn) [Example 263] (cyclo(G[Cha]Y(X2)[ξEnduracididine(βξ-OH,4'ξ)][X1]S); configuration not given here)	32
CCCC(CCC)C(=O)OCC1OC(OC2C(CO)OC(Oc3ccc(CC4NC(=O)C(C(C)c5ccccc5)NC(=O)CNC(=O)C(CO)NC(=O)C(C(O)C5CNC(=N)N5C5OC(CO)C(O)C(O)C5O)NC(=O)C(C(O)C5CNC(=N)N5)NC4=O)cc3)C(O)C2O)C(O)C(O)C1O (centres unmarked) [Example 99c]	2
CC(C)C(=O)OCC1OC(OC2C(CO)OC(Oc3ccc(CC4NC(=O)C(Cc5ccccc5)NC(=O)CNC(=O)C(CO)NC(=O)C(C(O)C5CNC(=N)N5C5OC(CO)C(O)C(O)C5O)NC(=O)C(C(O)C5CNC(=N)N5)NC4=O)cc3)C(O)C2O)C(O)C(O)C1O (centres unmarked) [Example 283a]	64
CC(c1ccccc1)C1NC(=O)CNC(=O)C(CO)NC(=O)C(C(O)C2CNC(=N)N2C2OC(CO)C(O)C(O)C2O)NC(=O)C(C(O)C2CNC(=N)N2)NC(=O)C(Cc2ccc(OC3OC(CO)C(OC4OC(COCC=Cc5ccc(N(C)C)cc5)C(O)C(O)C4O)C(O)C3O)cc2)NC1=O (centres unmarked)	32

Test item COc1ccc(CC2OCC3OC(OC4C(CO)OC(Oc5ccc(CC6NC(=O)C(C(C)c7ccccc7)NC(=O)CNC(=O)C(CO)NC(=O)C(C(O)C7CNC(=N)N7C7OC(CO)C(O)C(O)C7O)NC(=O)C(C(O)C7CNC(=N)N7)NC6=O)cc5)C(O)C4O)C(O)C(O)C3O2)cc1 (centres unmarked) ; Enterococcus sp.; reported MIC Enterococcus faecium (GC 4557) was 2

MIC Enterococcus faecium (GC 4557) on Enterococcus sp. for CC(c1ccccc1)C1NC(=O)CNC(=O)C(CO)NC(=O)C(C(O)C2CNC(=N)N2C2OC(CO)C(O)C(O)C2O)NC(=O)C(C(O)C2CNC(=N)N2)NC(=O)C(Cc2ccc(OC3OC(CO)C(OC4OC(CO)C(OCC=C(c5ccccc5)c5ccccc5)C(O)C4O)C(O)C3O)cc2)NC1=O (centres unmarked) [Example 241a] is 2

Result for CC(c1ccccc1)C1NC(=O)CNC(=O)C(CO)NC(=O)C(CC2CNC(=N)N2C2OC(CO)C(O)C(O)C2O)NC(=O)C(CC2CNC(=N)N2)NC(=O)C(Cc2ccc(OC3OC(CO)C(OC4OC(CO)C(O)C(O)C4OCc4ccc(OCc5ccccc5)cc4)C(O)C3O)cc2)NC1=O (centres unmarked) [Example 246c] , tested on Enterococcus sp., MIC Enterococcus faecium (GC 4557): 128

Log: Enterococcus sp., molecule CCCCCNC(=O)OCC1OC(OC2C(CO)OC(Oc3ccc(CC4NC(=O)C(C(C)c5ccccc5)NC(=O)CNC(=O)C(CO)NC(=O)C(C(O)C5CNC(=N)N5C5OC(CO)C(O)C(O)C5O)NC(=O)C(C(O)C5CNC(=N)N5)NC4=O)cc3)C(O)C2O)C(O)C(O)C1O (centres unmarked) [Example 251b] , MIC Enterococcus faecium (GC 4557) = 4

# lookup: CC(C)CC(=O)OC1C(OC2C(CO)OC(Oc3ccc(CC4NC(=O)C(C(C)c5ccc(F)cc5)NC(=O)CNC(=O)C(CO)NC(=O)C(C(O)C5CNC(=N)N5C5OC(CO)C(O)C(O)C5O)NC(=O)C(C(O)C5CNC(=N)N5)NC4=O)cc3)C(O)C2O)OC(CO)C(O)C1O (centres unmarked) [Example 261b] on Enterococcus sp., MIC Enterococcus faecium (GC 4557) = 16
